Target: human MC4R (Homo sapiens)
Construct: expressed in transfected cells
Sequence (P32245 whole entry): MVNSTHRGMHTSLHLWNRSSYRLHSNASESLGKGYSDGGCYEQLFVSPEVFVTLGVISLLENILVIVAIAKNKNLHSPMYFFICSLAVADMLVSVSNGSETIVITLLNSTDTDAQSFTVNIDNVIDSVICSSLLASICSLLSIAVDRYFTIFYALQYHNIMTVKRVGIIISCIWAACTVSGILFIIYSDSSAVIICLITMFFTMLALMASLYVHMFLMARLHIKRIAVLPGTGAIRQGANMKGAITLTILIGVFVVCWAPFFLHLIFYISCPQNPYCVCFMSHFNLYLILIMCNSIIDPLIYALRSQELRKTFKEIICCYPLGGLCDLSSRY
Test: Functional cAMP assay (CisBio HTRF) in BHK cells expressing human MC4R
Type: cell-based
Positions of bridges follow the written chain, without caps; N, C: chain ends. Non-standard residues stand in square brackets, D forms with d. Residues, ends and D or L forms follow the SMILES beside them. Thz = O=C(O)[C@@H]1CSCN1
I'd be grateful if you could share measured pEC50 for these entries.
Give bare numbers, as −log10 of the molar value.

[[record]]
molecule = "C[C@@H]1NC(=O)[C@H](CC(=O)O)NC(=O)[C@H](CC(=O)O)NC(=O)[C@H](C)NC(=O)[C@@H]2CSSC[C@H](NC(=O)[C@H](Cc3c[nH]c4ccccc34)NC1=O)C(=O)N1CSC[C@H]1C(=O)N[C@@H](Cc1c[nH]cn1)C(=O)N[C@H](Cc1ccccc1)C(=O)N[C@@H](Cc1c[nH]cn1)C(=O)N[C@@H](Cc1c[nH]c3ccccc13)C(=O)N2 [Chem. 106] (cyclo(ADDAWC[Thz]H[dF]HWC); disulfide 6-12)"
observed_result = 7.98


Attention now shifts to the item below.
Qu. Record request: pEC50 value, item C[C@@H]1NC(=O)[C@@H]2CSSC[C@H](NC(=O)[C@H](Cc3c[nH]c4ccccc34)NC(=O)[C@H](CCCCN)NC(=O)[C@H](CCCCN)NC(=O)[C@H](CCCCN)NC1=O)C(=O)N1CSC[C@H]1C(=O)N[C@@H](Cc1c[nH]cn1)C(=O)N[C@H](Cc1ccccc1)C(=O)N[C@@H](Cc1c[nH]cn1)C(=O)N[C@@H](Cc1c[nH]c3ccccc13)C(=O)N2 [Chem. 81] (cyclo(AKKKWC[Thz]H[dF]HWC); disulfide 6-12)
Ans. 10.15
